- Method Description: Caspase-3/7 induction in CHO-K1 cells by small molecules, qHTS cell viability counter screen (AID 1346979); further: nearly all actives have a fitted effect of over 35% in size
- Test Settings: CellTiter-Fluor fluorescence, 17 h; series mostly up to 92.4 µM
Records with an inconclusive call do not appear. Active and inactive are the calls of the source. The call rests on the fitted dose curve; in most records, active means well fitted cell-killing curve with a large enough effect in the repeat runs; inconclusive means weak or mixed curves, or effect the other way; inactive means no such curve, though single readings can be large or run the other way.
Please state which outcome applies, choosing from active, inactive

# Compound, Classification
rows = [
    ("CC(=O)N[C@@H](Cc1ccc(O)cc1)C(=O)O", "inactive"),
    ("COc1ccc2nc(S(=O)Cc3ncc(C)c(OC)c3C)[nH]c2c1 (centres undefined)", "active"),
    ("CCC1CCC(CCC(=O)O)C1 (centres undefined)", "inactive"),
    ("Cc1cccc2sc(N)nc12", "inactive"),
    ("O=C(O)c1ccc(O)cc1O", "inactive"),
    ("O=C(Nc1ccc(C(=O)O)c(O)c1)c1ccccc1", "inactive"),
    ("O=[N+]([O-])C1(Br)COCOC1", "active"),
    ("CC1=CC[C@@]23C[C@@H]1C(C)(C)[C@@H]2CC[C@H]3C", "inactive"),
]

How was CCC(CO)(CO)CO classified in this test?
inactive

Kindly provide the recorded test outcome for the following compound: Cc1ccccc1S(N)(=O)=O
inactive

Recorded test outcome, item CC(C)C1CCC(C(=O)N[C@H](Cc2ccccc2)C(=O)O)CC1 (some centres undefined)
inactive

----------
- Method Description: qHTS assay to test for compound auto fluorescence at 460 nm (blue) in HEK293 cell free culture (AID 720681); further: on the % scale 0 is the no-effect control and ±100 the full control effect
- Test Settings: cell-free medium, autofluorescence 405/460 nm (blue); series mostly up to 91.3 µM
Activity calls are given as the source filed them. Calls come from the whole dose curve; as a rule, active = well fitted curve in the direction sought with a large enough effect in the repeat runs; inconclusive = weak or mixed curves; inactive = flat fitted curve, though single readings scatter.
Property Label: fluorescence, % of fluorescent control

Example compounds with recorded fluorescence, % of fluorescent control:
# Compound, fluorescence, % of fluorescent control
data = [
    ("Nc1c(Cl)cc(Cl)cc1[N+](=O)[O-]", "inactive"),
    ("Oc1ccc2c(c1)Cc1ccccc1-2", "inactive"),
    ("CC1CCCC(=O)C1=O (stereo unspecified)", "inactive"),
    ("CCC(C)(C)C(=O)O", "inactive"),
    ("CO[C@@H]1[C@@H](OC)[C@H](C)[C@@](O)(CC(=O)O)O[C@H]1[C@H](C)[C@H]1O[C@@]2(CC[C@@](C)([C@H]3CC[C@@](C)([C@@H]4O[C@@H]([C@H]5O[C@](C)(O)[C@H](C)C[C@@H]5C)C[C@@H]4OC4C[C@H](OC)[C@@H](OC)[C@H](C)O4)O3)O2)C[C@H](O)[C@H]1C (stereo partly specified)", "inactive"),
    ("BrC(Br)C(Br)Br", "inactive"),
    ("CC(C)(C)NCC(O)COc1cccc2c1C[C@H](O)[C@H](O)C2 (stereo partly specified)", "0.0347% [at 18.6 µM] (inactive)"),
    ("CN=C(N)NC(=O)Nc1c(C)cccc1C", "inactive"),
    ("Cc1ccc(NC(=O)N(C)C)cc1NC(=O)N(C)C", "inactive"),
    ("Cc1cccc2sc(N)nc12", "inactive"),
]

Notebook: O=P(O)(O)Oc1ccccc1 , fluorescence, % of fluorescent control read as inactive

----------
- Method Description: A CellTox Green Cytotoxicity Assay to monitor cytotoxicity in HepG2 cells - 16 hour (AID 1224876); further: on the % scale 0 is the no-effect control and ±100 the full control effect; nearly all actives have a fitted effect of over 45% in size
- Test Settings: CellTox Green fluorescence; series mostly up to 76.8 µM
- Excerpt: National Center for Advancing Translational Sciences [NCATS] NIH Chemical Genomics Center [NCGC] U.S. Environmental Protection Agency [EPA] National Institutes of Environmental Health Sciences [NIEHS] National Toxicology Program [NTP] Cell-based models are critical for drug discovery. […] Viable cells produce no appreciable increases in fluorescence. Therefore, the fluorescence signal produced by the binding interaction with dead cell DNA is proportional to cytotoxicity. […]
Results filed as inconclusive are left out. Calls of active or inactive are those of the source. Calls follow the shape of the dose curve; as a rule, active = well fitted activation curve with a large enough effect in the repeat runs; inconclusive = weak or mixed curves; inactive = flat fitted curve, though single readings scatter.
Assign a class; possible classes are active, inactive

# Molecule, Classification
rows = [
    ("COC(=O)CC(C(C)=O)C(=O)OC (stereo not drawn)", "inactive"),
]

For the next question, use this molecule.
State the result this test recorded for [Cl][Nd]([Cl])[Cl] .
inactive

----------
- Method Description: qHTS RealTime-Glo MT Cell Viability Assay in HEK293 cells - 8 hour (AID 1224887); further: top concentration of the series differs between compounds; on the % scale 0 is the no-effect control and ±100 the full control effect; nearly all actives have a fitted effect of over 50% in size
- Test Settings: RealTime-Glo luminescence; series mostly up to 76.8 µM
Inconclusive results are not listed. Activity calls are given as the source filed them. The call rests on the fitted dose curve; in most records, active means well fitted cell-killing curve with a large enough effect in the repeat runs; inconclusive means weak or mixed curves, or effect the other way; inactive means flat fitted curve, though single readings scatter.
# output must be one of True = active, False = inactive

Record request — test call for Cc1oc(=O)oc1COC(=O)[C@@H]1N2C(=O)[C@@H](NC(=O)[C@H](N)c3ccccc3)[C@H]2SC1(C)C
False

Which outcome was entered for the compound CCN(Cc1cccc(S(=O)(=O)O)c1)c1ccc(C(=C2C=CC(=[N+](CC)Cc3cccc(S(=O)(=O)O)c3)C=C2)c2ccccc2S(=O)(=O)[O-])cc1 in this test?
False

Can you look up the reported call for CSCC[C@H](NC(=O)[C@H](Cc1c[nH]c2ccccc12)NC(=O)CCNC(=O)OC(C)(C)C)C(=O)N[C@@H](CC(=O)O)C(=O)N[C@@H](Cc1ccccc1)C(N)=O for me?
False

// param item: Cc1ccccc1S(N)(=O)=O ; yields the recorded call
False

Per the assay record, what outcome was assigned to CCN(CC)CCOC(=O)C(c1ccccc1)c1ccccc1 ?
False

Dear colleague, could you share the recorded outcome for O=C1OC[C@H](Cc2cccc(O)c2)[C@H]1Cc1cccc(O)c1 when you have a moment?
False

Entry COC(=O)Nc1nc2ccc(C(=O)C3CC3)cc2[nH]1 : call = ?
False

----------
- Measured Target: Aromatase (Homo sapiens)
- Method Description: qHTS assay to identify aromatase inhibitors (AID 743083); further: nearly all actives have a fitted effect of over 55% in size
- Test Settings: MCF-7 aro ERE, testosterone-driven ERE luciferase, 24 h; series mostly up to 70.3 µM
Inconclusive results are not listed. The source made the active and inactive calls. Calls follow the shape of the dose curve; as a rule, active = well fitted inhibition curve with a large enough effect in the repeat runs; inconclusive = weak or mixed curves; inactive = no such curve, though single readings can be large or run the other way.
Parameter call: string, one of active, inactive

# Compound, Classification
measured = [
    ("O=C1OC[C@H](Cc2cccc(O)c2)[C@H]1Cc1cccc(O)c1", "inactive"),
    ("CCCCCCCC(=O)Oc1c(Br)cc(C#N)cc1Br", "active"),
]

Per the assay record, what outcome was assigned to O=C(O)CN1C(=O)c2cccc3cccc(c23)C1=O ?
inactive

Name the outcome recorded for CCO[Si](C)(CCCOCC1CO1)OCC (configuration not stated) in the assay.
inactive

----------
- Method Description: A CellTox Green Cytotoxicity Assay to monitor cytotoxicity in HepG2 cells - 24 hour (AID 1224878); further: on the % scale 0 is the no-effect control and ±100 the full control effect; nearly all actives have a fitted effect of over 45% in size
- Test Settings: CellTox Green fluorescence; series mostly up to 76.8 µM
Results filed as inconclusive are left out. Active and inactive are the calls of the source. Calls come from the whole dose curve; as a rule, active = well fitted activation curve with a large enough effect in the repeat runs; inconclusive = weak or mixed curves; inactive = flat fitted curve, though single readings scatter.
A correct response names exactly one class from active, inactive

Consider the following illustrative entries.
# Compound, Classification
measured = [
    ("CC1CCCO1 (stereo not given)", "inactive"),
    ("CC(=O)NNC(C)=O", "inactive"),
    ("CCN(CC)C(=O)/C(C#N)=C/c1cc(O)c(O)c([N+](=O)[O-])c1", "inactive"),
    ("O=S(=O)(O)CO", "inactive"),
]

Please let me know the test result on file for O=C(O)c1cccc(Oc2ccccc2)c1 .
inactive

// return assay outcome for Nc1nc2ccc(OC(F)(F)F)cc2s1
inactive

----------
- Method Description: qHTS assay to identify small molecule antagonists of the thyroid receptor (TR) signaling pathway (AID 743065); further: nearly all actives have a fitted effect of over 55% in size
- Test Settings: GH3.TRE-Luc, T3-stimulated luciferase inhibition, 23.5 h; series mostly up to 70.3 µM
Records with an inconclusive call do not appear. Active and inactive are the calls of the source. Calls come from the whole dose curve; as a rule, active = well fitted inhibition curve with a large enough effect in the repeat runs; inconclusive = weak or mixed curves; inactive = no such curve, though single readings can be large or run the other way.
Please reply with one of these outcomes: active, inactive

# Compound, Classification
records = [
    ("SCCc1cnccn1", "inactive"),
    ("ClC1=C(Cl)C1(Cl)Cl", "inactive"),
    ("Nc1ccc(S(=O)(=O)NCc2ccccc2)cc1", "inactive"),
    ("C=C(C)c1ccccc1", "inactive"),
    ("CCCCCCCCCCCC(=O)OCC(O)CO (centres undefined)", "inactive"),
    ("CC1=C2[C@@H]([C@H](C)CC[C@H]2/C=C(\\C)C(=O)O)[C@H](O)C1", "inactive"),
]

Tell me the assay call for CNC1CCCN(c2c(F)cc3c(=O)c(C(=O)O)cn(C4CC4)c3c2OC)C1 (centres undefined) please.
inactive

# fetch the recorded call for CCOCCC(=O)OCC here
inactive

So what was the verdict on CC(C)Cc1ccc(CC(=O)O)cc1 in this test?
inactive

What outcome does the record of this test show for C/C(C=O)=C\c1ccccc1 ?
inactive

Dear colleague, could you share the recorded outcome for Cc1c(C2(c3cc(Br)c(O)c(Br)c3C)OS(=O)(=O)c3ccccc32)cc(Br)c(O)c1Br when you have a moment?
active

Please state the recorded outcome for this compound: CCC(CO)(CO)[N+](=O)[O-]
inactive

Give the logged outcome of this assay for the following compound: CCCCCCCC(=O)OCCCCCC
inactive

Which outcome was assigned to C=Cc1ccc(OC(C)=O)cc1 in this test?
inactive
